Target: UniProtKB P18031
Sequence (P18031 whole entry): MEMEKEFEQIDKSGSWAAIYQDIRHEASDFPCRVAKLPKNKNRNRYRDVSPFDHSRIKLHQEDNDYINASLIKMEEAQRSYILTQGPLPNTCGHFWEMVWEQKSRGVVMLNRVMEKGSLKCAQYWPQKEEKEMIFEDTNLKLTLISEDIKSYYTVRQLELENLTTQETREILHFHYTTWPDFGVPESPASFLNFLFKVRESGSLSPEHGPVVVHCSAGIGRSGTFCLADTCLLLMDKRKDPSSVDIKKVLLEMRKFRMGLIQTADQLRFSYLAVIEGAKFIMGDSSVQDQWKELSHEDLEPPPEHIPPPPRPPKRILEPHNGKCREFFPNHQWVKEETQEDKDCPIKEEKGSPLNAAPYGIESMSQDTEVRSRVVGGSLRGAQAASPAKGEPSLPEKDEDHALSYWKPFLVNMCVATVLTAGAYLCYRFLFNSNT
pIC50: −log10 of the molar value.
The following molecules were reported with pIC50 values on UniProtKB P18031 in different studies.
Would you mind labelling by pIC50? At or over 5 is criterion met, under is criterion not met.

**Query** Evaluate COC(=O)c1c(O)cccc1OCCCc1cnc(C(Cc2ccc(C3CC(=O)NS3(=O)=O)c(C)c2)NS(=O)(=O)c2cccc(F)c2)[nH]1 (stereo not drawn) : pIC50 at minimum 5?
**Result** criterion met

**Query** Evaluate CC1CN(c2ccc(-c3nc(-c4ccc5oc6c(C(=O)O)cccc6c5c4)cs3)cc2)CC(C)O1 (stereo not drawn) : pIC50 at minimum 5?
**Result** criterion met

**Query** Evaluate CC(C)=CC[C@@H](O)C1=CC(=O)c2c(O)ccc(O)c2C1=O : pIC50 at minimum 5?
**Result** criterion not met

**Query** Evaluate CCOP(=O)(OCC)[C@H](Nc1ccccc1Cl)c1ccccc1O : pIC50 at minimum 5?
**Result** criterion not met

**Query** Evaluate O=C(Nc1ccc(-c2ccc(C(=O)Nc3ccccc3)cc2)cc1)c1ccccc1 : pIC50 at minimum 5?
**Result** criterion met

**Query** Evaluate O=C(O)COc1c(F)cc(CN(Cc2ccc(-c3csnn3)cc2)S(=O)(=O)c2ccccc2)cc1F : pIC50 at minimum 5?
**Result** criterion not met

**Query** Evaluate CC(=O)c1c(C)oc2ccc(NS(=O)(=O)c3cccc(C(=O)O)c3)cc12 : pIC50 at minimum 5?
**Result** criterion not met
